System: KHOS-240S
procedure_text: relative viability vs DMSO control (72 h) (fraction); higher = more viable cells
run_conditions: 0.1235 µM
Define the label as yes (1) when relative viability is strictly less than 1 and as no (0) in all remaining cases.

INSERT INTO measurements (mol_smiles, group_label) VALUES
  ('COc1cc(OC)c(/C=C/S(=O)(=O)Cc2ccc(OC)c(NCC(=O)O)c2)c(OC)c1', 'yes (1)'),
  ('C[C@H](Nc1ncnc2nc[nH]c12)c1cc2cccc(Cl)c2c(=O)n1-c1ccccc1', 'no (0)'),
  ('CC1(C)CC=C(c2nc(C3CC(C)(C)OC(C)(C)C3)ccc2NC(=O)c2nc(C#N)c[nH]2)CC1', 'no (0)'),
  ('CCc1cnn2c(NCc3ccc[n+]([O-])c3)cc(N3CCCC[C@H]3CCO)nc12', 'yes (1)');

###

Tested on: SW872
procedure_text: relative viability vs DMSO control (72 h) (fraction); higher = more viable cells
run_conditions: 10 µM
quantity: relative viability

INSERT INTO assay_data (mol_smiles, quantity, reported) VALUES
  ('CC[C@@H]1CN(C(=O)NCC(F)(F)F)C[C@@H]1c1cnc2cnc3[nH]ccc3n12', 'relative viability', 0.85),
  ('C[C@]12O[C@H](C[C@]1(O)CO)n1c3ccccc3c3c4c(c5c6ccccc6n2c5c31)CNC4=O', 'relative viability', 0.0094),
  ('CC(C)NC[C@@H](C(=O)N1CCN(c2ncnc3c2[C@H](C)C[C@H]3O)CC1)c1ccc(Cl)cc1', 'relative viability', 0.415),
  ('CCC(=O)N1CC[C@H](Nc2ncnc3c2CN(c2cnc(OC)c(C(F)(F)F)c2)CC3)C1', 'relative viability', 0.688),
  ('COCCNc1cc(NC(=O)N2CCCc3cc(CN4CCN(C)CC4=O)c(C=O)nc32)ncc1C#N', 'relative viability', 0.988),
  ('Cc1cccc(-c2nn3c(c2-c2ccnc4ccc(C(N)=O)cc24)CCC3)n1', 'relative viability', 1);

###

A collection of compounds and their measured relative viability
Tested on: SK-ES-1
procedure_text: relative viability vs DMSO control (72 h) (fraction); higher = more viable cells
run_conditions: 0.00152 µM
quantity: relative viability

INSERT INTO assay_data (mol_smiles, reported) VALUES
  ('Clc1ccc(Nc2nnc(Cc3ccncc3)c3ccccc23)cc1', 0.968),
  ('Cn1cc(C2=C(c3cn(C4CCN(Cc5ccccn5)CC4)c4ccccc34)C(=O)NC2=O)c2ccccc21', 1.11),
  ('Cn1ncnc1[C@H]1c2n[nH]c(=O)c3cc(F)cc(c23)N[C@@H]1c1ccc(F)cc1', 0.825),
  ('CNC(=O)c1ccccc1Sc1ccc2c(/C=C/c3ccccn3)n[nH]c2c1', 1.03);

###

Tested on: G401
procedure_text: relative viability vs DMSO control (72 h) (fraction); higher = more viable cells
run_conditions: 0.00152 µM
quantity: relative viability

INSERT INTO measurements (compound, quantity, reported) VALUES
  ('Cn1ncnc1[C@H]1c2n[nH]c(=O)c3cc(F)cc(c23)N[C@@H]1c1ccc(F)cc1 [Talazoparib]', 'relative viability', 0.935),
  ('CC1(C)CC=C(c2nc(C3CC(C)(C)OC(C)(C)C3)ccc2NC(=O)c2nc(C#N)c[nH]2)CC1 [Edicotinib]', 'relative viability', 1),
  ('CC[C@@H]1CN(C(=O)NCC(F)(F)F)C[C@@H]1c1cnc2cnc3[nH]ccc3n12 [Upadacitinib]', 'relative viability', 1),
  ('COCCNc1cc(NC(=O)N2CCCc3cc(CN4CCN(C)CC4=O)c(C=O)nc32)ncc1C#N [Roblitinib]', 'relative viability', 0.929),
  ('O=S(=O)(c1cccc2cnccc12)N1CCCNCC1 [Fasudil]', 'relative viability', 0.929),
  ('CN1CCN(c2ccc(C(=O)Nc3n[nH]c4ccc(Cc5cc(F)cc(F)c5)cc34)c(NC3CCOCC3)c2)CC1 [Entrectinib]', 'relative viability', 1.06),
  ('CCc1cnn2c(NCc3ccc[n+]([O-])c3)cc(N3CCCC[C@H]3CCO)nc12 [Dinaciclib]', 'relative viability', 0.989),
  ('COC(=O)N[C@@H](C)CNc1nccc(-c2cn(C(C)C)nc2-c2cc(Cl)cc(NS(C)(=O)=O)c2F)n1 [Encorafenib]', 'relative viability', 0.995),
  ('CC(C)Oc1ccc(-c2nn([C@@H](C)c3oc4ccc(F)cc4c(=O)c3-c3cccc(F)c3)c3ncnc(N)c23)cc1F [Umbralisib]', 'relative viability', 1.09),
  ('CN1CC[C@@H](NC(=O)Nc2ccc(C#N)cc2)C[C@@H]1c1nc2ccccc2[nH]1 [Glasdegib]', 'relative viability', 1.02),
  ('N#CCNC(=O)c1ccc(-c2ccnc(Nc3ccc(N4CCOCC4)cc3)n2)cc1 [Momelotinib]', 'relative viability', 1.05),
  ('CC1(COc2ccc3c(c2)ncn3-c2ccc3cccc(N4CCC(N)CC4)c3n2)COC1 [Crenolanib]', 'relative viability', 0.951);

###

Below: a set of entries, each annotated with reported relative viability.
Test system: A204
procedure_text: relative viability vs DMSO control (72 h) (fraction); higher = more viable cells
run_conditions: 10 µM
quantity: relative viability

INSERT INTO assay_data (mol_smiles, reported) VALUES
  ('CC(C)(O)CNc1nc(Nc2ccnc(C(F)(F)F)c2)nc(-c2cccc(C(F)(F)F)n2)n1', 0.723),
  ('CC#CC(=O)N1CCC[C@H]1c1nc(-c2ccc(C(=O)Nc3ccccn3)cc2)c2c(N)nccn12', 0.872),
  ('Cc1cc2c(F)c(Oc3ncnn4cc(OC[C@@H](C)O)c(C)c34)ccc2[nH]1', 0.642),
  ('CCN1C(=O)N(c2c(F)c(OC)cc(OC)c2F)Cc2cnc3[nH]c(CN4CCOCC4)cc3c21', 0.333);

###

Listed here: items and their measured relative viability.
Tested on: SK-LMS-1
procedure_text: relative viability vs DMSO control (72 h) (fraction); higher = more viable cells
run_conditions: 0.00017 µM
quantity: relative viability

INSERT INTO results (mol_smiles, reported) VALUES
  ('CCc1cnn2c(NCc3ccc[n+]([O-])c3)cc(N3CCCC[C@H]3CCO)nc12', 1.06),
  ('CC1(COc2ccc3c(c2)ncn3-c2ccc3cccc(N4CCC(N)CC4)c3n2)COC1', 0.98),
  ('Cc1cccc(-c2nn3c(c2-c2ccnc4ccc(C(N)=O)cc24)CCC3)n1', 1.04),
  ('CNC(=O)c1nnc(NC(=O)C2CC2)cc1Nc1cccc(-c2ncn(C)n2)c1OC', 1.09),
  ('CNC(=O)c1ccccc1Sc1ccc2c(/C=C/c3ccccn3)n[nH]c2c1', 1.11),
  ('Cc1cc2c(F)c(Oc3ncnn4cc(OC[C@@H](C)O)c(C)c34)ccc2[nH]1', 1.03),
  ('Cc1ccc(Nc2nccc(N(C)c3ccc4c(C)n(C)nc4c3)n2)cc1S(N)(=O)=O', 0.993),
  ('COc1cc(OC)c(/C=C/S(=O)(=O)Cc2ccc(OC)c(NCC(=O)O)c2)c(OC)c1', 1.08),
  ('CN1CC[C@@H](NC(=O)Nc2ccc(C#N)cc2)C[C@@H]1c1nc2ccccc2[nH]1', 1.08);

###

Test system: HS729
procedure_text: relative viability vs DMSO control (72 h) (fraction); higher = more viable cells
run_conditions: 0.1235 µM
quantity: relative viability

INSERT INTO measurements (mol_smiles, reported) VALUES
  ('Cn1ncnc1[C@H]1c2n[nH]c(=O)c3cc(F)cc(c23)N[C@@H]1c1ccc(F)cc1', 0.961),
  ('CNC(=O)c1nnc(NC(=O)C2CC2)cc1Nc1cccc(-c2ncn(C)n2)c1OC', 0.906),
  ('N#CC1(c2ccc(NC(=O)c3cccnc3NCc3ccncc3)cc2)CCCC1', 1.04);

###

Each record here notes measured relative viability.
System: SW1353
procedure_text: relative viability vs DMSO control (72 h) (fraction); higher = more viable cells
run_conditions: 0.00051 µM
quantity: relative viability

INSERT INTO assay_data (molecule, test_system, quantity, reported) VALUES
  ('CO[C@H]1C[C@@H]2CC[C@@H](C)[C@@](O)(O2)C(=O)C(=O)N2CCCC[C@H]2C(=O)O[C@H]([C@H](C)C[C@@H]2CC[C@@H](OCCO)[C@H](OC)C2)CC(=O)[C@H](C)/C=C(\C)[C@@H](O)[C@@H](OC)C(=O)[C@H](C)C[C@H](C)/C=C/C=C/C=C/1C', 'SW1353', 'relative viability', 0.875),
  ('O=C(Nc1ccc(OC(F)(F)Cl)cc1)c1cnc(N2CC[C@@H](O)C2)c(-c2cc[nH]n2)c1', 'SW1353', 'relative viability', 0.958),
  ('N#CC1(c2ccc(NC(=O)c3cccnc3NCc3ccncc3)cc2)CCCC1', 'SW1353', 'relative viability', 1.01),
  ('COC(=O)[C@@]1(O)C[C@H]2O[C@]1(C)n1c3ccccc3c3c4c(c5c6ccccc6n2c5c31)C(=O)NC4 [K-252a]', 'SW1353', 'relative viability', 1.03),
  ('CN1CCN(c2ccc(C(=O)Nc3n[nH]c4ccc(Cc5cc(F)cc(F)c5)cc34)c(NC3CCOCC3)c2)CC1', 'SW1353', 'relative viability', 1.05),
  ('Cc1ccc(Nc2nccc(N(C)c3ccc4c(C)n(C)nc4c3)n2)cc1S(N)(=O)=O', 'SW1353', 'relative viability', 0.952),
  ('O=S(=O)(c1cccc2cnccc12)N1CCCNCC1', 'SW1353', 'relative viability', 1.01),
  ('CCc1cnn2c(NCc3ccc[n+]([O-])c3)cc(N3CCCC[C@H]3CCO)nc12', 'SW1353', 'relative viability', 1.08),
  ('Cc1cc2c(F)c(Oc3ncnn4cc(OC[C@@H](C)O)c(C)c34)ccc2[nH]1', 'SW1353', 'relative viability', 0.991),
  ('CCN1C(=O)N(c2c(F)c(OC)cc(OC)c2F)Cc2cnc3[nH]c(CN4CCOCC4)cc3c21', 'SW1353', 'relative viability', 1.02);
